Tgt: T22C8.4 (T22C8.4) (Caenorhabditis elegans) (UniProt Q22677)
Sequence: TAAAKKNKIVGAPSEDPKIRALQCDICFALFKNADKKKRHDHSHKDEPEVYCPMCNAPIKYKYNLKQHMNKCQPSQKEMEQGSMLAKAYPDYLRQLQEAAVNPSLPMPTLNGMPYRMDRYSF
Reported binding signal (PBM E-score (-0.5 to 0.5)) values follow for various sequences
Measure Name: binding signal (PBM E-score (-0.5 to 0.5))

Residues	Numeric Result
ACCCTGCT (double strand) [8-mer ACCCTGCT]	0.487
CAGCAGGG (double strand) [8-mer CAGCAGGG]	0.494
CCCCTGCG (double strand) [8-mer CCCCTGCG]	0.493
CCCTGCTA (double strand) [8-mer CCCTGCTA]	0.486
CCCTGCAG (double strand) [8-mer CCCTGCAG]	0.483
CCCCTGCC (double strand) [8-mer CCCCTGCC]	0.479

###

Entries below carry reported binding signal (PBM E-score (-0.5 to 0.5)) on ztf-11 (F52F12.6) (Caenorhabditis elegans) (UniProt O02274).
Sequence (O02274 212-388): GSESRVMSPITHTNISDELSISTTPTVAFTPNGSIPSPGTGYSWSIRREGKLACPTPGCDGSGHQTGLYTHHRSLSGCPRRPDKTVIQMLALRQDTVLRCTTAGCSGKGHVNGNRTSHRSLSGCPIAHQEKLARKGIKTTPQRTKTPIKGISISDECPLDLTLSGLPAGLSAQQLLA
Measure Name: binding signal (PBM E-score (-0.5 to 0.5))

Residues	Numeric Result
CAAACTTG (double strand) [8-mer CAAACTTG]	0.487
AAGTTTGG (double strand) [8-mer AAGTTTGG]	0.485
AAACTTGC (double strand) [8-mer AAACTTGC]	0.485
AAAAGTTT (double strand) [8-mer AAAAGTTT]	0.492
AACTTTTG (double strand) [8-mer AACTTTTG]	0.48
AAGTTTCG (double strand) [8-mer AAGTTTCG]	0.483
AAGTTTGC (double strand) [8-mer AAGTTTGC]	0.483
AAGTTTGA (double strand) [8-mer AAGTTTGA]	0.48
AAGTTTGT (double strand) [8-mer AAGTTTGT]	0.487
AAACTTCG (double strand) [8-mer AAACTTCG]	0.487
CAAACTTC (double strand) [8-mer CAAACTTC]	0.48

###

Tgt: unc-120 (D1081.2) (Caenorhabditis elegans)
Sequence: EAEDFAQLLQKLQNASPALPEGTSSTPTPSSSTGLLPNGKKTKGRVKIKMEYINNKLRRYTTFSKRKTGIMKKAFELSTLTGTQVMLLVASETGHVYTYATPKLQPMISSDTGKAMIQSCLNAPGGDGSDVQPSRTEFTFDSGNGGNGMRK
Overview of recorded binding signal (PBM E-score (-0.5 to 0.5)) for various sequences
Measure Name: binding signal (PBM E-score (-0.5 to 0.5))

Residues	Numeric Result
ATATATGG (double strand) [8-mer ATATATGG]	0.486
AATATGGT (double strand) [8-mer AATATGGT]	0.466
AAATAAGG (double strand) [8-mer AAATAAGG]	0.464
TATATGGA (double strand) [8-mer TATATGGA]	0.478

###

Tgt: nhr-1 (R09G11.2) (Caenorhabditis elegans)
Sequence: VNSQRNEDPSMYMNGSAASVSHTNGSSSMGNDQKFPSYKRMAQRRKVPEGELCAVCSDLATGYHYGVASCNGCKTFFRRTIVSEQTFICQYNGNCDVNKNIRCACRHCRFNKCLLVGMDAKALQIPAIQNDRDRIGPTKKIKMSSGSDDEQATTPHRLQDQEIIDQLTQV
Measure Name: binding signal (PBM E-score (-0.5 to 0.5))

Residues	Numeric Result
ATGATCAC (double strand) [8-mer ATGATCAC]	0.486
ACTGATCA (double strand) [8-mer ACTGATCA]	0.478
AGAGATCA (double strand) [8-mer AGAGATCA]	0.474
ATTGATCA (double strand) [8-mer ATTGATCA]	0.479
AGGGATCA (double strand) [8-mer AGGGATCA]	0.479
GGTGATCA (double strand) [8-mer GGTGATCA]	0.488

###

egrh-1 (C27C12.2) (Caenorhabditis elegans) (UniProt Q18250) measurements of binding signal (PBM E-score (-0.5 to 0.5)), listed per entry.
Sequence (Q18250 324-461): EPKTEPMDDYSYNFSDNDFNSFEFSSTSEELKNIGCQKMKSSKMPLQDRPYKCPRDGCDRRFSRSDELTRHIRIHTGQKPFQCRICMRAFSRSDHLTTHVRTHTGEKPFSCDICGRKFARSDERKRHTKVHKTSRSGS
Measure Name: binding signal (PBM E-score (-0.5 to 0.5))

Residues	Numeric Result
CCCACGCG (double strand) [8-mer CCCACGCG]	0.486
CCCCCGCG (double strand) [8-mer CCCCCGCG]	0.485
ACGCCCCC (double strand) [8-mer ACGCCCCC]	0.495
AGGGGGCG (double strand) [8-mer AGGGGGCG]	0.486
GCCCACGC (double strand) [8-mer GCCCACGC]	0.495
CCCCCACA (double strand) [8-mer CCCCCACA]	0.489
CGCCCCCA (double strand) [8-mer CGCCCCCA]	0.493
GCCCCCAC (double strand) [8-mer GCCCCCAC]	0.486
CCCCCGCA (double strand) [8-mer CCCCCGCA]	0.495

###

The entries below come with measured binding signal (PBM E-score (-0.5 to 0.5)) values attached.
Tgt: nhr-142 (F44E7.8) (Caenorhabditis elegans)
Sequence: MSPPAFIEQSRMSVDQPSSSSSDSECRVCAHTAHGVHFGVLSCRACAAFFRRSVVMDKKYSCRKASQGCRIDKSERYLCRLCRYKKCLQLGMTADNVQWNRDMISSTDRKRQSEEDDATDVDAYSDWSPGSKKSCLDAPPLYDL
Measure Name: binding signal (PBM E-score (-0.5 to 0.5))

Residues	Numeric Result
TAGTCACA (double strand) [8-mer TAGTCACA]	0.493
GGACACAA (double strand) [8-mer GGACACAA]	0.493
GAGTCACA (double strand) [8-mer GAGTCACA]	0.485
AAGTCACA (double strand) [8-mer AAGTCACA]	0.496
AGTCATAA (double strand) [8-mer AGTCATAA]	0.491
AGTCACAC (double strand) [8-mer AGTCACAC]	0.49

###

Tgt: nhr-5 (Y73F8A.21) (Caenorhabditis elegans) (UniProt Q9NA51)
Sequence: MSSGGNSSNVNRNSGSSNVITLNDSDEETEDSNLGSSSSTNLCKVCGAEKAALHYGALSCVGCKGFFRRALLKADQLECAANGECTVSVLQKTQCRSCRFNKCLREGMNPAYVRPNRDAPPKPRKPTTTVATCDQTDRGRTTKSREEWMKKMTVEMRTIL
binding signal (PBM E-score (-0.5 to 0.5)) listing for selected sequences.
Measure Name: binding signal (PBM E-score (-0.5 to 0.5))

Residues	Tgt	Result
AGTACACT (double strand) [8-mer AGTACACT]	nhr-5 (Y73F8A.21) (Caenorhabditis elegans) (UniProt Q9NA51)	0.454
AAAGTACG (double strand) [8-mer AAAGTACG]	nhr-5 (Y73F8A.21) (Caenorhabditis elegans) (UniProt Q9NA51)	0.462
AAAGAACG (double strand) [8-mer AAAGAACG]	nhr-5 (Y73F8A.21) (Caenorhabditis elegans) (UniProt Q9NA51)	0.458
AAAGTTCA (double strand) [8-mer AAAGTTCA]	nhr-5 (Y73F8A.21) (Caenorhabditis elegans) (UniProt Q9NA51)	0.46
ATAGTACA (double strand) [8-mer ATAGTACA]	nhr-5 (Y73F8A.21) (Caenorhabditis elegans) (UniProt Q9NA51)	0.452
GAGTACAC (double strand) [8-mer GAGTACAC]	nhr-5 (Y73F8A.21) (Caenorhabditis elegans) (UniProt Q9NA51)	0.461

###

In what follows, each item is paired with its binding signal (PBM E-score (-0.5 to 0.5)) for sptf-3 (Y40B1A.4) (Caenorhabditis elegans).
Measure Name: binding signal (PBM E-score (-0.5 to 0.5))

Residues	Numeric Result
ACCGCCCC (double strand) [8-mer ACCGCCCC]	0.476
GGGGCGTA (double strand) [8-mer GGGGCGTA]	0.462
ATGGGCGG (double strand) [8-mer ATGGGCGG]	0.456
AGGGGCGG (double strand) [8-mer AGGGGCGG]	0.494
ACGCCCAC (double strand) [8-mer ACGCCCAC]	0.454
ACGCCCCT (double strand) [8-mer ACGCCCCT]	0.452
GGGGCGGA (double strand) [8-mer GGGGCGGA]	0.475
ACGCCCCC (double strand) [8-mer ACGCCCCC]	0.49
CACGCCCC (double strand) [8-mer CACGCCCC]	0.473
CTCCGCCC (double strand) [8-mer CTCCGCCC]	0.451
CCGCCCAC (double strand) [8-mer CCGCCCAC]	0.489

###

Listed below: binding signal (PBM E-score (-0.5 to 0.5)) values for each entry.
Tgt: mab-3 (Y53C12B.5) (Caenorhabditis elegans)
Sequence: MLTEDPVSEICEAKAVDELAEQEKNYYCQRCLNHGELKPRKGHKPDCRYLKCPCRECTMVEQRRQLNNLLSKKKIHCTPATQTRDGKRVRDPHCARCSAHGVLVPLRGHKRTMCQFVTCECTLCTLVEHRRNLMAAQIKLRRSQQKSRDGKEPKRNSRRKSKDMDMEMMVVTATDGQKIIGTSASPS
Measure Name: binding signal (PBM E-score (-0.5 to 0.5))

Residues	Numeric Result
CCGCAACA (double strand) [8-mer CCGCAACA]	0.482
TGTTGCAA (double strand) [8-mer TGTTGCAA]	0.497
GTTGCAAC (double strand) [8-mer GTTGCAAC]	0.479
ATGTTGCA (double strand) [8-mer ATGTTGCA]	0.497
GCAACATA (double strand) [8-mer GCAACATA]	0.493
ATGTTGCC (double strand) [8-mer ATGTTGCC]	0.477
CGCAACAA (double strand) [8-mer CGCAACAA]	0.487
ATTGTTGC (double strand) [8-mer ATTGTTGC]	0.486
AATGTTGC (double strand) [8-mer AATGTTGC]	0.498

Values compiled from paper PMC4434323.
